- Test system: Aspergillus flavus
- experiment-notes: Antifungal activity against Aspergillus flavus at 50 ug/ml after 48 hr by paper disk diffusion method
- Type: functional
- details: read-out: IZ
Reported zone of inhibition at 50 µg/mL values follow for various compounds

Solved entries (count: 2):
| compound | measured-attribute | meas-value |
| --- | --- | --- |
| O=C1C(Cl)=C(Nc2ccc(Br)cc2)C(=O)C(Cl)=C1Nc1ccc(Br)cc1 | zone of inhibition at 50 µg/mL | 10 mm |
| O=C1C(Cl)=C(Nc2ccc(F)cc2)C(=O)C(Cl)=C1Nc1ccc(F)cc1 | zone of inhibition at 50 µg/mL | 13 mm |

Reported zone of inhibition at 50 µg/mL ( O=C1C(Cl)=C(Nc2ccccc2)C(=O)C(Cl)=C1Nc1ccccc1 ) = 3 mm

Reported zone of inhibition at 50 µg/mL ( O=C1C(Cl)=C(Nc2ccccc2F)C(=O)C(Cl)=C1Nc1ccccc1F ) = 10 mm

Reported zone of inhibition at 50 µg/mL ( COC1=CC(=O)C[C@@H](C)[C@]12Oc1c(Cl)c(OC)cc(OC)c1C2=O [GRISEOFULVIN] ) = > 21 mm

###

- Test system: Aspergillus niger
- experiment-notes: Antifungal activity against Aspergillus niger at 50 ug/ml after 48 hr by paper disk diffusion method
- Type: functional
- details: read-out: IZ
measured-attribute: zone of inhibition at 50 µg/mL (mm)
Give just the numeric value; mm need not be written.

| substance-smiles | measured-attribute | measurement-unit | meas-value |
| --- | --- | --- | --- |
| Cc1ccc(NC2=C(Cl)C(=O)C(Nc3ccc(C)cc3)=C(Cl)C2=O)cc1 | zone of inhibition at 50 µg/mL | mm | 3 |
| COc1ccc(NC2=C(Cl)C(=O)C(Nc3ccc(OC)cc3)=C(Cl)C2=O)cc1 | zone of inhibition at 50 µg/mL | mm | 3 |
| O=C1C(Cl)=C(Nc2ccc(Br)cc2)C(=O)C(Cl)=C1Nc1ccc(Br)cc1 | zone of inhibition at 50 µg/mL | mm | 10 |

I looked up O=C1C(Cl)=C(Nc2ccccc2F)C(=O)C(Cl)=C1Nc1ccccc1F and its zone of inhibition at 50 µg/mL for Aspergillus niger was 13

###

Reported zone of inhibition at 50 µg/mL values follow for various compounds
- System: Rhizopus arrhizus
- experiment-notes: Antifungal activity against Rhizopus oryzae at 50 ug/ml after 48 hr by paper disk diffusion method
- Assay type: functional
- details: read-out: IZ
Give just the numeric value; mm need not be written.

| substance-smiles | measured-on | zone of inhibition at 50 µg/mL (mm) |
| --- | --- | --- |
| O=C1C(Cl)=C(Nc2ccc(Cl)cc2)C(=O)C(Cl)=C1Nc1ccc(Cl)cc1 | Rhizopus arrhizus | 3 |
| O=C1C(Cl)=C(Nc2ccc(Br)cc2)C(=O)C(Cl)=C1Nc1ccc(Br)cc1 | Rhizopus arrhizus | 3 |
| O=C1C(Cl)=C(Nc2ccc(F)cc2)C(=O)C(Cl)=C1Nc1ccc(F)cc1 | Rhizopus arrhizus | 10 |
| O=C1C(Cl)=C(Nc2ccccc2F)C(=O)C(Cl)=C1Nc1ccccc1F | Rhizopus arrhizus | 10 |
| COc1ccccc1NC1=C(Cl)C(=O)C(Nc2ccccc2OC)=C(Cl)C1=O | Rhizopus arrhizus | 3 |

Reported zone of inhibition at 50 µg/mL ( O=C1C(Cl)=C(Nc2ccccc2Cl)C(=O)C(Cl)=C1Nc1ccccc1Cl ) = 10

###

- Tested on: Paracoccus denitrificans
- experiment-notes: Antibacterial activity against Paracoccus denitrificans at 50 ug/ml after 24 hr by agar cup-plate method
- Format: functional
- details: read-out: DIZ
measured-attribute: zone of inhibition at 50 µg/mL (mm)
Give just the numeric value; mm need not be written.

Solved entries (count: 8):
| substance-smiles | meas-value |
| --- | --- |
| O=C1C(Cl)=C(Nc2ccc(F)cc2)C(=O)C(Cl)=C1Nc1ccc(F)cc1 | 13 |
| Cc1ccc(NC2=C(Cl)C(=O)C(Nc3ccc(C)cc3)=C(Cl)C2=O)cc1 | 10 |
| O=C1C(Cl)=C(Nc2ccccc2)C(=O)C(Cl)=C1Nc1ccccc1 | 10 |
| Cc1ccccc1NC1=C(Cl)C(=O)C(Nc2ccccc2C)=C(Cl)C1=O | 3 |
| O=C1C(Cl)=C(Nc2ccc(Cl)cc2)C(=O)C(Cl)=C1Nc1ccc(Cl)cc1 | 10 |
| COc1ccc(NC2=C(Cl)C(=O)C(Nc3ccc(OC)cc3)=C(Cl)C2=O)cc1 | 13 |
| O=C1C(Cl)=C(Nc2ccccc2Cl)C(=O)C(Cl)=C1Nc1ccccc1Cl | 13 |
| O=C1C(Cl)=C(Nc2ccc(Br)cc2)C(=O)C(Cl)=C1Nc1ccc(Br)cc1 | 13 |

Okay, now this compound:
Reported zone of inhibition at 50 µg/mL ( COc1ccccc1NC1=C(Cl)C(=O)C(Nc2ccccc2OC)=C(Cl)C1=O ) = 13

###

- Tested on: Aspergillus flavus
- experiment-notes: Antifungal activity against Aspergillus flavus at 100 ug/ml after 48 hr by paper disk diffusion method
- Type: functional
- details: read-out: IZ
measured-attribute: zone of inhibition at 100 µg/mL
# number then unit; no other words

Solved entries (count: 3):
| substance-smiles | measured-attribute | meas-value |
| --- | --- | --- |
| O=C1C(Cl)=C(Nc2ccc(Cl)cc2)C(=O)C(Cl)=C1Nc1ccc(Cl)cc1 | zone of inhibition at 100 µg/mL | 13 mm |
| O=C1C(Cl)=C(Nc2ccc(Br)cc2)C(=O)C(Cl)=C1Nc1ccc(Br)cc1 | zone of inhibition at 100 µg/mL | 13 mm |
| O=C1C(Cl)=C(Nc2ccccc2Cl)C(=O)C(Cl)=C1Nc1ccccc1Cl | zone of inhibition at 100 µg/mL | 13 mm |

Reported zone of inhibition at 100 µg/mL ( COc1ccccc1NC1=C(Cl)C(=O)C(Nc2ccccc2OC)=C(Cl)C1=O ) = 10 mm

Reported zone of inhibition at 100 µg/mL ( COc1ccc(NC2=C(Cl)C(=O)C(Nc3ccc(OC)cc3)=C(Cl)C2=O)cc1 ) = 13 mm

Reported zone of inhibition at 100 µg/mL ( Cc1ccccc1NC1=C(Cl)C(=O)C(Nc2ccccc2C)=C(Cl)C1=O ) = 3 mm

###

- System: Bacillus subtilis
- experiment-notes: Antibacterial activity against Bacillus subtilis at 50 ug/ml after 24 hr by agar cup-plate method
- Assay type: functional
- details: read-out: DIZ
measured-attribute: zone of inhibition at 50 µg/mL

| substance-smiles | meas-value |
| --- | --- |
| O=C1C(Cl)=C(Nc2ccccc2F)C(=O)C(Cl)=C1Nc1ccccc1F | > 21 mm |
| O=C1C(Cl)=C(Nc2ccccc2Cl)C(=O)C(Cl)=C1Nc1ccccc1Cl | 13 mm |
| Cc1ccc(NC2=C(Cl)C(=O)C(Nc3ccc(C)cc3)=C(Cl)C2=O)cc1 | 3 mm |
| O=C1C(Cl)=C(Nc2ccc(F)cc2)C(=O)C(Cl)=C1Nc1ccc(F)cc1 | > 21 mm |
| COc1ccccc1NC1=C(Cl)C(=O)C(Nc2ccccc2OC)=C(Cl)C1=O | 3 mm |

Okay, now this compound:
Reported zone of inhibition at 50 µg/mL ( O=C1C(Cl)=C(Nc2ccccc2)C(=O)C(Cl)=C1Nc1ccccc1 ) = 3 mm
